Recorded values, source paper PMC10671360.

- systemTested: tau fibrils (Homo sapiens)
- Sequence (P10636 2-758): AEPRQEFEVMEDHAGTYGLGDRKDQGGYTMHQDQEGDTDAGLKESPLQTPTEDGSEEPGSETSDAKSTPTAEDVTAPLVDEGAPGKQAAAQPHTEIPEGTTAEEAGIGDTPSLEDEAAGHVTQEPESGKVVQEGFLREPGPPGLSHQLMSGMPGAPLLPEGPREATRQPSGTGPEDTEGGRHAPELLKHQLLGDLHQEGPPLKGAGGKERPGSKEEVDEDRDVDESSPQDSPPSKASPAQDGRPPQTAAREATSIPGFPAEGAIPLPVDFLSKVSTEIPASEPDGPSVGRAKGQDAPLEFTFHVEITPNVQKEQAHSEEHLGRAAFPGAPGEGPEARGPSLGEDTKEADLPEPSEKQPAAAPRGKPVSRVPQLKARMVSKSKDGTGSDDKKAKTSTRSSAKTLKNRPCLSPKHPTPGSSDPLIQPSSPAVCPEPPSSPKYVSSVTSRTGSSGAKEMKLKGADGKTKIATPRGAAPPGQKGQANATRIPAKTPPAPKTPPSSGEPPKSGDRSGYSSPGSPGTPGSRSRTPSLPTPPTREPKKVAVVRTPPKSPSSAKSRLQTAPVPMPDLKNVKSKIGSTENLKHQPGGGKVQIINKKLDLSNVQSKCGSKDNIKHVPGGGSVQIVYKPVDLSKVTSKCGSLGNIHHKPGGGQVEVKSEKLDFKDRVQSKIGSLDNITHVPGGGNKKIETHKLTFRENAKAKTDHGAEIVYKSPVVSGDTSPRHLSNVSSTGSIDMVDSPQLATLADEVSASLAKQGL
- assayComment: Competition binding assay against [^3H]PiB, tau fibrils
- Method: Recombinant tau monomer (R&D systems, Minneapolis, MN, USA) was dissolved in 20 mM of Tris HCl, pH 8.0, 100 mM of NaCl, 25 μM of low-MW heparin, and 0.5 mM of dithiothreitol to a final concentration of 300 µg/mL. […] The supernatants from the three centrifugation steps were combined, and the concentration of the monomer in the resulting supernatant was determined in a BCA assay(Thermo Fisher Scientific, Waltham, MA, USA) (with a BSA standard curve). […]
quantityMeasured: pKi
Conceptually, pKi converts a concentration in mol/L into minus its log10.

Sample answers from the record:
COc1ccc(-c2csc(-c3nc(-c4cnc5c(c4)OCO5)cs3)n2)c(OC)c1 [f19] | 6.17
COc1ccc(-c2csc(-c3nc(-c4cnc5c(c4)OCO5)cs3)n2)cc1OCCOCCF [f9] | 5.95

Recorded pKi for FCCOCCOc1cnc(-c2csc(-c3nc(-c4ccc5c(c4)OCO5)cs3)n2)nc1 [f6] , please?
6.44

What value of pKi has been reported for the following molecule? FCCOCCOCCOc1cnc(-c2csc(-c3nc(-c4ccc5c(c4)OCO5)cs3)n2)nc1 [f7]
6.62

###

Each entry below carries its reported pKi.
- systemTested: tau fibrils (Homo sapiens)
- assayComment: Competition binding assay against [^3H]DCVJ, tau fibrils
- measurementConditions: [^3H]DCVJ was used (20 nM); tau aggregates 125 nM
The meaning of pKi here: minus log10 of the concentration in molar units.

Study these solved cases before continuing.
FCCOc1cnc(-c2csc(-c3nc(-c4ccc5c(c4)OCO5)cs3)n2)nc1 [f5] | 6.29
FCCOc1cnc(-c2csc(-c3nc(-c4cnc5c(c4)OCO5)cs3)n2)nc1 [f4] | 6.33

What measured pKi is associated with FCCOCCOc1cnc(-c2csc(-c3nc(-c4ccc5c(c4)OCO5)cs3)n2)nc1 [f6] on tau fibrils (Homo sapiens)?
6.36

###

- systemTested: tau fibrils (Homo sapiens)
- assayComment: Competition binding assay against [^3H]PiB, tau fibrils
quantityMeasured: Ki (nM)
Give the number; nM is assumed, so skip it.

tau fibrils (Homo sapiens) / Ki / FCCOc1ccc(-c2csc(-c3nc(-c4ccc5c(c4)OCO5)cs3)n2)cc1 : value?
499

Write down the reported Ki of Fc1ccc(-c2csc(-c3nc(-c4ccc5c(c4)OCO5)cs3)n2)cn1 , test system: tau fibrils (Homo sapiens).
799

Find the measured Ki: item FCCOc1cnc(-c2csc(-c3nc(-c4ccc5c(c4)OCO5)cs3)n2)nc1 , target or system tau fibrils (Homo sapiens).
516

Enter reported Ki observed with tau fibrils (Homo sapiens) for COc1ccc(-c2csc(-c3nc(-c4ccc5c(c4)OCO5)cs3)n2)cc1OCCOCCOCCF
662

# query: Ki | item COc1cnc(-c2csc(-c3nc(-c4ccc5c(c4)OCO5)cs3)n2)nc1 | system: tau fibrils (Homo sapiens)
707

Could you share what Ki was measured for FCCOCCOc1ccc(-c2csc(-c3nc(-c4cnc5c(c4)OCO5)cs3)n2)c(OCCOCCF)c1 , tested on tau fibrils (Homo sapiens)?
815

Query for tau fibrils (Homo sapiens): what Ki does the record show for FCCOCCOCCOc1ccc(-c2csc(-c3nc(-c4cnc5c(c4)OCO5)cs3)n2)cc1F ?
615

Which measured Ki belongs to FCCOCCOCCOc1cnc(-c2csc(-c3nc(-c4cnc5c(c4)OCO5)cs3)n2)nc1 , tested on tau fibrils (Homo sapiens)?
120

For tau fibrils (Homo sapiens), provide Ki of COc1ccc(-c2csc(-c3nc(-c4ccc5c(c4)OCO5)cs3)n2)cc1F [d2] please.
681
